The origin of these recorded values is ChEMBL document CHEMBL5442334.

# ASSAY_SYSTEM: Cannabinoid receptor 2 (Homo sapiens)
# PROCEDURE_DETAILS: SafetyScreen: CB2 Human Cannabinoid GPCR Binding Agonist Radioligand LeadHunter Assay, catalogue number: 37
# MEASUREMENT_CONTEXT: Test compound concentration 10.0 uM
Exercise: state measured inhibition for each of the molecules provided.
One number for each entry, in %.

SMILES_REPR: CC(C)[C@@H](Nc1ncnc2[nH]c(C(=O)N[C@@H]3CCN(C)C3)cc12)c1ccc2c(c1)S(=O)(=O)CCC2
ASSAY_SYSTEM: Cannabinoid receptor 2 (Homo sapiens)
inhibition [%]: -8

// each molecule listed below needs its inhibition
1. CC(C)[C@@H](Nc1ncnc2[nH]c(-c3cnn(C)c3C#N)cc12)c1ccc2c(n1)OCCO2
2. Cc1nn(C)cc1-c1cc2c(N[C@H](c3ccc4c(c3)S(=O)(=O)CCC4)C(C)C)ncnc2[nH]1
3. C[C@H](C(=O)O)[C@@H](NC(=O)c1ncnc2[nH]ccc12)c1ccc(Br)cc1
4. CNCc1cc(-c2cc3c(N[C@@H](c4ccc5c(c4)S(=O)(=O)CCC5)C(C)C)ncnc3[nH]2)co1

// result
1. 16
2. -8
3. -5
4. -8

// each molecule listed below needs its inhibition
1. CC(C)[C@H](Nc1ncnc2[nH]c(-c3cnn(C)c3C#N)cc12)c1ccc2c(n1)OCCO2
2. Cn1ncc(-c2cc3c(N[C@@H](c4ccc5c(n4)OCCO5)C(C)(C)C)ncnc3[nH]2)c1C#N

// result
[44, 31]

====

Exercise: state measured inhibition for each of the molecules provided.
# ASSAY_SYSTEM: Neuronal acetylcholine receptor; alpha4/beta2 (Homo sapiens) (UniProt P17787+P43681)
# PROCEDURE_DETAILS: SafetyScreen: nAChR (alpha4/beta2) Human Ion Channel Binding Agonist Radioligand LeadHunter Assay, catalogue number: 3029
# Format: protein-complex assay
# MEASUREMENT_CONTEXT: Test compound concentration 10.0 uM
One number for each entry, in %.

SMILES_REPR: COc1ccc([C@H](Cc2nnn[nH]2)NC(=O)c2ncnc3[nH]ccc23)cc1
ASSAY_SYSTEM: Neuronal acetylcholine receptor; alpha4/beta2 (Homo sapiens) (UniProt P17787+P43681)
inhibition (%): 4

// each molecule listed below needs its inhibition
1. CNCc1cc(-c2cc3c(N[C@@H](c4ccc5c(c4)S(=O)(=O)CCC5)C(C)C)ncnc3[nH]2)co1
2. C[C@H](C(=O)O)[C@@H](NC(=O)c1ncnc2[nH]ccc12)c1ccc(Br)cc1
3. Cc1nn(C)cc1-c1cc2c(N[C@H](c3ccc4c(c3)S(=O)(=O)CCC4)C(C)C)ncnc2[nH]1
4. Cn1ncc(-c2cc3c(N[C@@H](c4ccc5c(n4)OCCO5)C(C)(C)C)ncnc3[nH]2)c1C#N

// result
[0, 0, -2, -5]

// each molecule listed below needs its inhibition
1. CC(C)[C@H](Nc1ncnc2[nH]ccc12)c1ccc2c(c1)S(=O)(=O)CCC2
2. CC(C)[C@@H](Nc1ncnc2[nH]c(-c3cnn(C)c3C#N)cc12)c1ccc2c(n1)OCCO2
3. CC(C)[C@H](Nc1ncnc2[nH]c(-c3cnn(C)c3C#N)cc12)c1ccc2c(n1)OCCO2
4. CC(C)[C@@H](Nc1ncnc2[nH]c(C(=O)N[C@@H]3CCN(C)C3)cc12)c1ccc2c(c1)S(=O)(=O)CCC2

// result
[1, -2, 2, -2]
